Data credit: ChEMBL document CHEMBL4004830

Tested on: MDA-MB-453
METHOD_SUMMARY: Growth inhibition of human MDA-MB-453 cells after 72 hrs by MTT assay
Format: functional
TEST_CONTEXT: MDA-MB-453, 72 h
QUANTITY_KIND: GI50 (nM)
Give bare numbers, in nM.

Report GI50 for every entry below.
1. Cc1nc(NC(C)C)sc1-c1ccnc(Nc2ccc(N3CCNCC3)cn2)n1
2. FC(F)(F)c1nc(NC2CCCC2)sc1-c1ccnc(Nc2ccc(N3CCNCC3)cn2)n1
3. Cc1nc(N(C)C2CCCC2)sc1-c1ccnc(Nc2ccc(N3CCN(C)CC3)cn2)n1
4. Cc1nc(NC2CCCC2)sc1-c1nc(Nc2ccc(N3CCOCC3)cn2)ncc1F

[31, 81, 3360, 1440]
